Give IC50 for every item shown.
- measurement target: human kinase Mps-1 (Homo sapiens (Human), UniProt P33981)
- Sequence (P33981 whole entry): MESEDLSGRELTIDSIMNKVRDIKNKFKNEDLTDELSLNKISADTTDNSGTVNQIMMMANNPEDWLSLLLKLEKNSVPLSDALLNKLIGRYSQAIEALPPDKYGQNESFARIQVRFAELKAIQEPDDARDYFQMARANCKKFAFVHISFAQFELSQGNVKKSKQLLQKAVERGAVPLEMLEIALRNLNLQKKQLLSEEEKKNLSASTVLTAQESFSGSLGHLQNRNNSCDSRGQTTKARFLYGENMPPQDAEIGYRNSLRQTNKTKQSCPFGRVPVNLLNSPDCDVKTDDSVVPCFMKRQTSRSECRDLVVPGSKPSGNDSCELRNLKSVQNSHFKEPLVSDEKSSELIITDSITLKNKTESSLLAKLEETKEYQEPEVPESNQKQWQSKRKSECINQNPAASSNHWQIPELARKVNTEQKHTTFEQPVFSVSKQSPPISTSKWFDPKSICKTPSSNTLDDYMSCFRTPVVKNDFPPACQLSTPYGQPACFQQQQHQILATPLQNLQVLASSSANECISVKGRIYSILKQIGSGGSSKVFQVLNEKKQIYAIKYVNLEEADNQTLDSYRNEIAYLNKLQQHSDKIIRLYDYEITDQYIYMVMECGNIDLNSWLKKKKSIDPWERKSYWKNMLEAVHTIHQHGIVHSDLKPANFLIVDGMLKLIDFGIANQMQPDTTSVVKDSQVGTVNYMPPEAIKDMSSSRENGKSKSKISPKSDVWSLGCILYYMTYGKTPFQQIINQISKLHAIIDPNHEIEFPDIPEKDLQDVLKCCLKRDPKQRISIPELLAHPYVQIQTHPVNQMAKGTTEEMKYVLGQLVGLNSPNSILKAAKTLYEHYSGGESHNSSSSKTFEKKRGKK
- measurement protocol: Mps-1 kinase assay (TR-FRET)
- Format: biochemical
- experimental setup: N-terminally GST-tagged human full length recombinant Mps-1; 10 μM ATP; 1 μM biotinylated peptide substrate; read-out: Mps1 IC50
Give bare numbers, in nM.

Example entries and their recorded answers appear below.
compound="COc1ccc(Oc2cc(NCC3CCOCC3)c3ncn(-c4ccc(C(=O)NC5CC5)c(C)c4)c3c2)c(SC)c1 [Example 116B]" measured_result=2.9
compound=Cc1cc(-n2cnc3c(NCCC(F)(F)F)cc(Oc4cccc(F)c4O)cc32)ccc1C(=O)NC1CC1 measured_result=0.4

Please give IC50, item by item, for the list that follows.
1. CNC(=O)c1ccc(-n2cnc3c(NCC4CCOCC4)cc(Oc4ccc(OC)cc4SC)cc32)cc1C [Example 115B]
2. CNC(=O)c1ccc(-n2cnc3c(NCCC(F)(F)F)cc(Oc4ccccc4OC)cc32)cc1C
3. Cc1cc(-n2cnc3c(NCC4CCOCC4)cc(Oc4ccc(Cl)cc4)cc32)ccc1C(=O)NC1CC1
4. COc1ccc(C(O)c2cc(NCCC(F)(F)F)c3ncn(-c4ccc(C(=O)NC5CC5)c(C)c4)c3c2)cc1F (stereo not shown)
5. Cc1cc(-n2cnc3c(NCCC(F)(F)F)cc(Oc4cccc(C#N)c4)cc32)ccc1C(=O)NC1CC1

Solution:
1: 28.9; 2: 43.3; 3: 2.2; 4: 1.8; 5: 1

###

- measurement target: human kinase Mps-1 (Homo sapiens (Human))
- measurement protocol: Mps-1 kinase assay (TR-FRET)
- Type: biochemical
- experimental setup: N-terminally GST-tagged human full length recombinant Mps-1; 10 μM ATP; 1 μM biotinylated peptide substrate; read-out: Mps1 IC50
The label is true for IC50 below 6 nM and false for IC50 equal to or exceeding 6 nM.

Examples with answers:
compound="CCNC(=O)c1ccc(-n2cnc3c(NCCC(F)(F)F)cc(Oc4cccc(OC)c4)cc32)cc1C [Example 69]" qualitative_label=false
compound="Cc1cc(-n2cnc3c(NCCC(F)(F)F)cc(-c4ccnn4C)cc32)ccc1C(=O)NC1CC1 [Example 30]" qualitative_label=true
compound="CCNC(=O)c1ccc(-n2cnc3c(NCCC(F)(F)F)cc(Oc4cccc(F)c4O)cc32)cc1C [Example 93]" qualitative_label=true

Exercise: Please state whether IC50 is below 6 nM for CNC(=O)c1ccc(-n2cnc3c(NCCC(F)(F)F)cc(Oc4ccc(OC)cc4F)cc32)cc1C [Example 88]
Solution: false

Exercise: Field entry: CC(C)CNc1cc(-c2ccc(F)cc2)cc2c1ncn2-c1ccc(C(=O)NC2CC2)cc1 [Example 7]
Solution: true

Exercise: Please do the same for CNC(=O)c1ccc(-n2cnc3c(NCCC(F)(F)F)cc(Oc4ccc(OCc5ccccc5)cc4)cc32)cc1C [Example 47] as well.
Solution: false

Exercise: // repeat for Cc1cc(-n2cnc3c(NCCC(F)(F)F)cc(Oc4ccc(F)c(C(F)(F)F)c4)cc32)ccc1C(=O)NC1CC1 [Example 76] and report
Solution: false

Exercise: Next: Cc1cc(-n2cnc3c(NCCC(F)(F)F)cc(Oc4cccc(F)c4)cc32)ccc1C(=O)NC1CC1 [Example 4]
Solution: true

Exercise: Input CC(C)CNc1cc(Br)cc2c1ncn2-c1ccc(C(=O)NC2CC2)cc1 [Example 6]
Solution: false

Exercise: Next: Cc1cc(-n2cnc3c(NCCC(F)(F)F)cc(-c4ccccc4CO)cc32)ccc1C(=O)NC1CC1 [Example 21]
Solution: true
